Taken from patent US20130296434A1.

test: Pharmacokinetics of single rising oral doses of PDS and food effect in healthy male subjects; type: in vivo, human; details: male, human, plasma, po, 400 mg, single oral 400 mg, healthy male subjects, n = 5; median
Quantity Measured: Tmax (min)
Answer format: numeric, min implied, no suffix.

Query: Reported Tmax, molecule O=S(=O)([O-])CCCS(=O)(=O)[O-].[Na+].[Na+] [PDS] : ____
Response: 30

###

assay: Pharmacokinetics of PDS after single and multiple oral administration in AA amyloidosis patients; type: in vivo; settings: human, plasma, po, 400 mg, Dose 400 (mg BID), Month 24 repeated oral doses, n = 3, mean
Quantity Measured: Cmax (µg/mL)
Answer format: numeric, µg/mL implied, no suffix.

Query: Reported Cmax, molecule O=S(=O)([O-])CCCS(=O)(=O)[O-].[Na+].[Na+] : ____
Response: 2.16

###

experiment: Pharmacokinetics of single rising oral doses of PDS and food effect in healthy male subjects; format: in vivo, human; conditions: male, human, plasma, po, 200 mg, single oral 200 mg, healthy male subjects, n = 5; mean
Quantity Measured: AUC(0-t) (ng·h/mL)
Answer format: numeric, ng·h/mL implied, no suffix.

Query: Reported AUC(0-t), compound O=S(=O)([O-])CCCS(=O)(=O)[O-].[Na+].[Na+] : ____
Response: 626

###

assay: Pharmacokinetics of PDS after single and multiple oral administration in AA amyloidosis patients; assay type: in vivo; conditions: human, plasma, po, 400 mg BID, Month 24 repeated oral doses, n = 3, mean, read-out: AUC(0-12)
Quantity Measured: AUC(0-t)
// return the numeric value with its unit appended

Query: Reported AUC(0-t), compound O=S(=O)([O-])CCCS(=O)(=O)[O-].[Na+].[Na+] : ____
Response: 17600 ng·h/mL

###

assay: Pharmacokinetics of PDS after single and multiple oral administration in AA amyloidosis patients; type: in vivo; conditions: human, plasma, po, multiple dose oral administration, read-out: range of T1/2 calculated based on the accumulation factor
Quantity Measured: half-life

Query: Reported half-life, compound O=S(=O)([O-])CCCS(=O)(=O)[O-].[Na+].[Na+] [PDS] : ____
Response: 10 to 24 h

###

test: Pharmacokinetics of single and repeated oral doses of PDS in healthy male subjects; type: in vivo, human; details: male, human, plasma, po, 400 mg, 400 mg q.i.d., Day 7 (repeated oral administration), n = 6; mean
Quantity Measured: Cmax (ng/mL)
Answer format: numeric, ng/mL implied, no suffix.

Query: Reported Cmax, compound O=S(=O)([O-])CCCS(=O)(=O)[O-].[Na+].[Na+] [PDS] : ____
Response: 995

###

assay: Pharmacokinetic profile of a single oral dose of 800 mg PDS in subjects with varying degrees of renal impairment vs healthy volunteers; type: in vivo; conditions: human, plasma, single oral 800 mg, Mild renal impairment, GFR 50-80 mL/min, mean, only subjects with estimable elimination rate constant
Quantity Measured: AUC(0-inf) (ng·h/mL)
Answer format: numeric, ng·h/mL implied, no suffix.

Query: Reported AUC(0-inf), compound O=S(=O)([O-])CCCS(=O)(=O)[O-].[Na+].[Na+] [PDS] : ____
Response: 13000

###

experiment: Pharmacokinetic profile of a single oral dose of 800 mg PDS in subjects with varying degrees of renal impairment vs healthy volunteers; assay type: in vivo; details: human, plasma, single oral 800 mg, Mild renal impairment, GFR 50-80 mL/min, n = 6, mean, read-out: AUC0-Tlast
Quantity Measured: AUC(0-t) (ng·h/mL)
Answer format: numeric, ng·h/mL implied, no suffix.

Query: Reported AUC(0-t), compound O=S(=O)([O-])CCCS(=O)(=O)[O-].[Na+].[Na+] : ____
Response: 9110

###

assay: Pharmacokinetics of PDS after single and multiple oral administration in AA amyloidosis patients; type: in vivo; settings: human, plasma, po, 1200 mg, Dose 1200 (mg BID, ClCr >80 mL/min), Month 0 single oral dose, n = 4, mean
Quantity Measured: Cmax (ng/mL)
Answer format: numeric, ng/mL implied, no suffix.

Query: Reported Cmax, compound O=S(=O)([O-])CCCS(=O)(=O)[O-].[Na+].[Na+] [PDS] : ____
Response: 867

###

assay: Pharmacokinetics of PDS after single and multiple oral administration in AA amyloidosis patients; assay type: in vivo; conditions: human, plasma, po, 400 mg, Dose 400 (mg BID, ClCr 20-30 mL/min), Month 0 single oral dose, n = 2, mean
Quantity Measured: Cmax

Query: Reported Cmax, compound O=S(=O)([O-])CCCS(=O)(=O)[O-].[Na+].[Na+] : ____
Response: 841 ng/mL

###

test: Pharmacokinetics of single and repeated oral doses of PDS in healthy male subjects; type: in vivo, human; details: male, human, plasma, po, 800 mg, 800 mg q.i.d., Day 7 (repeated oral administration), n = 6; mean
Quantity Measured: AUC(0-t) (ng·h/mL)
Answer format: numeric, ng·h/mL implied, no suffix.

Query: Reported AUC(0-t), compound O=S(=O)([O-])CCCS(=O)(=O)[O-].[Na+].[Na+] [PDS] : ____
Response: 19900

###

assay: Pharmacokinetics of single rising oral doses of PDS and food effect in healthy male subjects; assay type: in vivo, human; conditions: male, human, plasma, po, 800 mg, single oral 800 mg, healthy male subjects, n = 10; median
Quantity Measured: Tmax (min)
Answer format: numeric, min implied, no suffix.

Query: Reported Tmax, compound O=S(=O)([O-])CCCS(=O)(=O)[O-].[Na+].[Na+] : ____
Response: 30

###

test: Pharmacokinetics of single rising oral doses of PDS and food effect in healthy male subjects; type: in vivo, human; conditions: male, human, plasma, po, 400 mg, single oral 400 mg, healthy male subjects, n = 5; mean
Quantity Measured: Cmax (ng/mL)
Answer format: numeric, ng/mL implied, no suffix.

Query: Reported Cmax, compound O=S(=O)([O-])CCCS(=O)(=O)[O-].[Na+].[Na+] : ____
Response: 1080

###

assay: Pharmacokinetic profile of a single oral dose of 800 mg PDS in subjects with varying degrees of renal impairment vs healthy volunteers; format: in vivo; conditions: human, plasma, single oral 800 mg, Moderate renal impairment, GFR 30-50 mL/min, n = 4, mean, read-out: AUC0-Tlast
Quantity Measured: AUC(0-t) (ng·h/mL)
Answer format: numeric, ng·h/mL implied, no suffix.

Query: Reported AUC(0-t), compound O=S(=O)([O-])CCCS(=O)(=O)[O-].[Na+].[Na+] : ____
Response: 9450

###

test: Pharmacokinetics of single rising oral doses of PDS and food effect in healthy male subjects; assay type: in vivo, human; conditions: male, human, plasma, po, 2400 mg, single oral 2400 mg, healthy male subjects, n = 5; median
Quantity Measured: Tmax (min)
Answer format: numeric, min implied, no suffix.

Query: Reported Tmax, compound O=S(=O)([O-])CCCS(=O)(=O)[O-].[Na+].[Na+] [PDS] : ____
Response: 30

###

Assay: Pharmacokinetics of PDS after single and multiple oral administration in AA amyloidosis patients
Type: in vivo
Settings: human, plasma, po, 1200 mg BID, Month 24 repeated oral doses, n = 1, read-out: AUC(0-tlast)
Description: In the following examples, terms are as defined below. […] The safety, efficacy and pharmacokinetics of PDS after single and multiple oral administration in subjects with AA amyloidosis is determined. […] Plasma concentrations of PDS are determined using validated HPLC methods. […] Based on the accumulation factor, the mean T1/2 calculated is 15 hours with a range of 10 to 24 hours.
Quantity Measured: AUC(0-t) (ng·h/mL)
Answer format: numeric, ng·h/mL implied, no suffix.

Query: Reported AUC(0-t), molecule O=S(=O)([O-])CCCS(=O)(=O)[O-].[Na+].[Na+] [PDS] : ____
Response: 9140

###

Assay: Pharmacokinetics of PDS after single and multiple oral administration in AA amyloidosis patients
Format: in vivo
Conditions: human, plasma, po, 1200 mg, Dose 1200 (mg BID), Month 0 single oral dose, n = 4, mean, read-out: AUC(0-tlast)
Description: In the following examples, terms are as defined below. […] The safety, efficacy and pharmacokinetics of PDS after single and multiple oral administration in subjects with AA amyloidosis is determined. […] Plasma concentrations of PDS are determined using validated HPLC methods. […] Based on the accumulation factor, the mean T1/2 calculated is 15 hours with a range of 10 to 24 hours.
Quantity Measured: AUC(0-t)
// return the numeric value with its unit appended

Query: Reported AUC(0-t), compound O=S(=O)([O-])CCCS(=O)(=O)[O-].[Na+].[Na+] : ____
Response: 5630 ng·h/mL

###

assay: Pharmacokinetics of single and repeated oral doses of PDS in healthy male subjects; type: in vivo, human; details: male, human, plasma, po, 800 mg, 800 mg q.i.d., Day 7 (repeated oral administration), n = 6; median
Quantity Measured: Tmax

Query: Reported Tmax, molecule O=S(=O)([O-])CCCS(=O)(=O)[O-].[Na+].[Na+] [PDS] : ____
Response: 15 min
